- System Tested: Casein kinase II subunit alpha' (Homo sapiens) (UniProt P19784)
- Sequence (P19784 whole entry, looked up): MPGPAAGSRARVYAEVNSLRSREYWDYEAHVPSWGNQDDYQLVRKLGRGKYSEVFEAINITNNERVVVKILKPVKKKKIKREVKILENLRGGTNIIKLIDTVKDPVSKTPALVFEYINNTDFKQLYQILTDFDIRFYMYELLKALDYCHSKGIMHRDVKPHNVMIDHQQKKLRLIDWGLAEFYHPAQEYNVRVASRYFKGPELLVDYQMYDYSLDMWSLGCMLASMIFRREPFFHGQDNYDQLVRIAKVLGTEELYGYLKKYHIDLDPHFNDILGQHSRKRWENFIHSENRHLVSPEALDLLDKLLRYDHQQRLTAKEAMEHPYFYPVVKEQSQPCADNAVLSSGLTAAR
- Assay Explanation: Binding affinity to CK2alpha2 assessed as change in thermal denaturation at 10 uM by thermal stability shift assay
Observable: ΔTm (°C)

Record excerpt, results attached:
Cn1c2c(c3ccc(Cl)c(Cl)c31)C(C#N)C1(CCOCC1)NC2=O (configuration not stated)	1
CC(=O)NCC1c2c(n(C)c3c(Cl)c(Cl)ccc23)C(=O)NC1(C)C (racemic)	1
Cn1c2c(Cl)c(Cl)ccc2c2cn[nH]c(=O)c21	2.1
CCC1(CC)NC(=O)c2c(c3ccc(Cl)c(Cl)c3n2C)C1C#N (configuration not stated)	1
Cn1c2c(Cl)c(Cl)ccc2c2cc(N)[nH]c(=O)c21	3

P = Cn1c2c(c3ccc(Cl)c(Cl)c31)C(C#N)C(C)(C)NC2=O (configuration not stated)
Q = Cn1c2c(c3ccc(Cl)c(Cl)c31)C(CN)C(C)(C)NC2=O (racemic)
Between P and Q , which one shows the larger ΔTm value? Let me know the label of the one you choose.
P
(P: 2.1 °C, Q: 0.5 °C)

---

- System Tested: Serine/threonine-protein kinase pim-2 (Homo sapiens)
- Sequence (Q9P1W9 whole entry, looked up): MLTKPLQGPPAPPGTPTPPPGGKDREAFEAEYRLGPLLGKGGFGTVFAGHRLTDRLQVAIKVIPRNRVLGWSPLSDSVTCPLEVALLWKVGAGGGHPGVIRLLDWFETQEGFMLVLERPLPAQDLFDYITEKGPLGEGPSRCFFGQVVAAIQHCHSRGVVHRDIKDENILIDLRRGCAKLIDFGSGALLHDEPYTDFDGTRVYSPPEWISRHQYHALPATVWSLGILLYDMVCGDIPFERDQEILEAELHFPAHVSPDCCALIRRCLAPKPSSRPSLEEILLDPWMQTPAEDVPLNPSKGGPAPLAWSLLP
- Assay Explanation: Binding affinity to PIM2 assessed as change in thermal denaturation at 10 uM by thermal stability shift assay
Observable: ΔTm (°C)

P = CC(=O)NCC1c2c(n(C)c3c(Cl)c(Cl)ccc23)C(=O)NC1(C)C (racemic)
Q = CC1(C)NC(=O)c2[nH]c3c(Cl)c(Cl)ccc3c2C1C#N (stereo unspecified)
R = CCN1CCC2(CC1)NC(=O)c1c(c3ccc(Cl)c(Cl)c3n1C)C2C#N (racemic)
Given 3 molecules, produce a descending ranking by ΔTm. In plain terms: list the labels in the order you were asked to.
R, Q, P
(R: 3.9 °C, Q: 2.3 °C, P: 0.7 °C)

1 = N#CC1c2c([nH]c3c(Cl)c(Cl)ccc23)C(=O)NC12CCCCC2 (racemic)
2 = Cn1c2c(Cl)c(Cl)ccc2c2cc(N)[nH]c(=O)c21
When the recorded ΔTm values are compared, which is smaller: that of 1 or that of 2 ? Let me know the label of the one you choose.
1
(1: 1.4 °C, 2: 3 °C)

A = CN1CCC2(CC1)NC(=O)c1c(c3ccc(Cl)c(Cl)c3n1C)C2C#N (racemic)
B = Cn1c2c(c3ccc(Cl)c(Cl)c31)C(C#N)C1(CCN(C(=O)OC(C)(C)C)CC1)NC2=O (racemic)
When the recorded ΔTm values are compared, which is smaller: that of A or that of B ? Let me know the label of the one you choose.
B

1 = Cn1c2c(c3ccc(Cl)c(Cl)c31)C(CN)C(C)(C)NC2=O (racemic)
2 = CCC1(CC)NC(=O)c2c(c3ccc(Cl)c(Cl)c3n2C)C1C#N (stereo unspecified)
3 = Cn1c2c(c3ccccc31)C(C#N)C(C)(C)NC2=O (stereo unspecified)
Place the items in sequence of falling ΔTm. In plain terms: list the labels in the order you were asked to.
1, 2, 3
(1: 3.2 °C, 2: 2 °C, 3: -0.2 °C)

I = Cn1c2c(c3ccc(Cl)c(Cl)c31)C(C#N)C1(CCCC1)NC2=O (stereo unspecified)
II = Cn1c2c(c3ccc(Cl)c(Cl)c31)C(C#N)C(C)(C)NC2=O (stereo unspecified)
Between I and II , which one shows the larger ΔTm value? Let me know the label of the one you choose.
II

A = Cn1c2c(Cl)c(Cl)ccc2c2cc[nH]c(=O)c21
B = Cn1c2c(Cl)c(Cl)ccc2c2cn[nH]c(=O)c21
When the recorded ΔTm values are compared, which is smaller: that of A or that of B ? Let me know the label of the one you choose.
B

---

- System Tested: Dual specificity protein kinase CLK4 (Homo sapiens)
- Assay Explanation: Binding affinity to CLK4 assessed as change in thermal denaturation at 10 uM by thermal stability shift assay
Observable: ΔTm (°C)

CN1CCC2(CC1)NC(=O)c1c(c3ccc(Cl)c(Cl)c3n1C)C2C#N (racemic)	2.1
CC1(C)NC(=O)c2[nH]c3c(Cl)c(Cl)ccc3c2C1C#N (stereo not given)	4.9
Cn1c2c(c3ccccc31)C(C#N)C(C)(C)NC2=O (stereo not given)	1.4
Cn1c2c(c3ccc(Cl)c(Cl)c31)C(C#N)C1(CCCCC1)NC2=O (racemic)	1.1
Cn1c2c(c3ccc(Cl)c(Cl)c31)C(C#N)C1(CCCC1)NC2=O (stereo not given)	3.3

A = Cn1c2c(c3ccc(Cl)c(Cl)c31)C(C#N)C(C)(C)NC2=O (stereo not given)
B = Cn1c2c(Cl)c(Cl)ccc2c2cc(N)[nH]c(=O)c21
C = CC(=O)NCC1c2c(n(C)c3c(Cl)c(Cl)ccc23)C(=O)NC1(C)C (racemic)
Place the items in sequence of falling ΔTm. In plain terms: list the labels in the order you were asked to.
A, B, C

---

- System Tested: cAMP-dependent protein kinase catalytic subunit PRKX (Homo sapiens)
- Sequence (whole entry): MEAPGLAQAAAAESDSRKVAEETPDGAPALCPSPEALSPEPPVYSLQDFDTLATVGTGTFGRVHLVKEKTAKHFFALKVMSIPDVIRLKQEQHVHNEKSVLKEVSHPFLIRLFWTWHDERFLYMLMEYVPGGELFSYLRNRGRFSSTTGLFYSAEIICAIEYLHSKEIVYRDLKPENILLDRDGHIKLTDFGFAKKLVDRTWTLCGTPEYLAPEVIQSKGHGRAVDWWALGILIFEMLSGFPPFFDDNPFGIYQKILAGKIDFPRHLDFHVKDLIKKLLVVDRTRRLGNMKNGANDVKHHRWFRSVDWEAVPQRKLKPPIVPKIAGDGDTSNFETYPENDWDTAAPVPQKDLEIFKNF
- Assay Explanation: Binding affinity to PRKX assessed as change in thermal denaturation at 10 uM by thermal stability shift assay
Observable: ΔTm (°C)

I = Cn1c2c(c3ccc(Cl)c(Cl)c31)C(C#N)C1(CCOCC1)NC2=O (stereo not given)
II = CCC1(CC)NC(=O)c2c(c3ccc(Cl)c(Cl)c3n2C)C1C#N (stereo not given)
When the recorded ΔTm values are compared, which is smaller: that of I or that of II ? Let me know the label of the one you choose.
II
(II: 0.8 °C, I: 1.4 °C)

A = Cn1c2c(Cl)c(Cl)ccc2c2cc(N)[nH]c(=O)c21
B = Cn1c2c(c3ccccc31)C(C#N)C(C)(C)NC2=O (stereo not given)
When the recorded ΔTm values are compared, which is smaller: that of A or that of B ? Let me know the label of the one you choose.
B

A = Cn1c2c(c3ccc(Cl)c(Cl)c31)C(C#N)C1(CCCC1)NC2=O (stereo not given)
B = Cn1c2c(c3ccc(Cl)c(Cl)c31)C(C#N)C1(CCN(C(=O)OC(C)(C)C)CC1)NC2=O (racemic)
C = N#CC1c2c([nH]c3c(Cl)c(Cl)ccc23)C(=O)NC12CCCCC2 (racemic)
D = Cn1c2c(c3ccc(Cl)c(Cl)c31)C(CN)C(C)(C)NC2=O (racemic)
Place the items in sequence of falling ΔTm. In plain terms: list the labels in the order you were asked to.
D, C, A, B
(D: 3.3 °C, C: 1 °C, A: 0.7 °C, B: 0.3 °C)

---

- System Tested: TGF-beta receptor type-2 (Homo sapiens) (UniProt P37173)
- Sequence (P37173 whole entry): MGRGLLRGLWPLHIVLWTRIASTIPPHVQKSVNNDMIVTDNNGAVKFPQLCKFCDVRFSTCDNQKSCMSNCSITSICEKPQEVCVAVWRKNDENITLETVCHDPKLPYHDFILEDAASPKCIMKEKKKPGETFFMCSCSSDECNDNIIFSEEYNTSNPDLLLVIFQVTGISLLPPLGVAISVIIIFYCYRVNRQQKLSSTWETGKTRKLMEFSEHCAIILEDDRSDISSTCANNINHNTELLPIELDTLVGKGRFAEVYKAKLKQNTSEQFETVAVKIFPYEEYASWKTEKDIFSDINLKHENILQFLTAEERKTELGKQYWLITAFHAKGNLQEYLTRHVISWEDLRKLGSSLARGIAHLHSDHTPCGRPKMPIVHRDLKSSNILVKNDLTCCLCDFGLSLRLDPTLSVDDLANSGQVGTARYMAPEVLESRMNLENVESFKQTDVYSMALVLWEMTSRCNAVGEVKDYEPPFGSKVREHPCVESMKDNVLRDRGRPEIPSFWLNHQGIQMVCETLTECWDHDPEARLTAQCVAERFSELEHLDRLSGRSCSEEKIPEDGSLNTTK
- Assay Explanation: Binding affinity to TGFBR2 assessed as change in thermal denaturation at 10 uM by thermal stability shift assay
Observable: ΔTm (°C)

Record excerpt, results attached:
Cn1c2c(Cl)c(Cl)ccc2c2cc(N)[nH]c(=O)c21	7.9
Cn1c2c(Cl)c(Cl)ccc2c2cc[nH]c(=O)c21	10.1
Cn1c2c(c3ccc(Cl)c(Cl)c31)C(C#N)C(C)(C)NC2=O (stereo not drawn)	8.1
CCC1(CC)NC(=O)c2c(c3ccc(Cl)c(Cl)c3n2C)C1C#N (stereo not drawn)	5
CN1CCC2(CC1)NC(=O)c1c(c3ccc(Cl)c(Cl)c3n1C)C2C#N (racemic)	1.1
CC1(C)NC(=O)c2[nH]c3c(Cl)c(Cl)ccc3c2C1C#N (stereo not drawn)	6.8
Cn1c2c(Cl)c(Cl)ccc2c2cn[nH]c(=O)c21	10.4
Cn1c2c(c3ccc(Cl)c(Cl)c31)C(C#N)C1(CCCC1)NC2=O (stereo not drawn)	2.2

1 = Cn1c2c(c3ccccc31)C(C#N)C(C)(C)NC2=O (stereo not drawn)
2 = CCN1CCC2(CC1)NC(=O)c1c(c3ccc(Cl)c(Cl)c3n1C)C2C#N (racemic)
When the recorded ΔTm values are compared, which is smaller: that of 1 or that of 2 ? Let me know the label of the one you choose.
2
(2: 0.3 °C, 1: 2.9 °C)

I = Cn1c2c(c3ccc(Cl)c(Cl)c31)C(CN)C(C)(C)NC2=O (racemic)
II = CC(=O)NCC1c2c(n(C)c3c(Cl)c(Cl)ccc23)C(=O)NC1(C)C (racemic)
Between I and II , which one shows the larger ΔTm value? Let me know the label of the one you choose.
I
(I: 3 °C, II: 1.5 °C)
